Test: NCI Yeast Anticancer Drug Screen. Data for the mec2-1 strain (AID 157)
Conditions: S. cerevisiae mec2-1 strain, at 33.0 µM
Compounds without any hit were thinned out: in the full panel of roughly 79,000, 15% have a hit. The source made the active and inactive calls. No stated cut-off is given here; in the data, active means growth inhibition above about 70%; inactive means the rest.
Please answer using one outcome listed in active, inactive

Query: In this assay, the call recorded for `CCc1c[n+]([O-])c(C)cc1[N+](=O)[O-]` was what?
Reply: inactive

Query: Another compound to look at: `CCOc1c(N=Nc2ccccc2OC)c(C)nn1C(=S)S`
Reply: inactive

Query: What do you get for `C(=Nc1ccc(-c2cc(-c3ccccc3)nc3ccc4ccccc4c23)cc1)c1ccccc1` ?
Reply: inactive

Query: Can you handle Cc1cccc[n+]1C1CCc2c(ccc3ccccc23)C1=O (configuration not stated) next?
Reply: inactive

Query: Please do the same for `CC(=O)Nc1ccc2c(c1)Cc1cc(N=C3C=CC(=O)O3)ccc1-2` as well.
Reply: active

Query: How about this compound: `Nc1cc(N)c(N=Nc2cccc3c(S(=O)(=O)O)cccc23)cc1N=Nc1cc([N+](=O)[O-])ccc1O`
Reply: inactive

Query: Proceed to `CCCCCCOC(=O)NCCOC(=O)Nc1ccccc1`
Reply: inactive

Query: // repeat for `c1ccc(Cc2cc(-c3ccccc3)n[nH]2)cc1` and report
Reply: inactive

Query: And what about the compound CC(=O)OC1CC2C(C)(C)C(=O)C=C[C@]2(C)C2CCC3(C)C(=CCC3[C@H](CO)C[C@H](O)C(=O)C(C)(C)O)[C@]12C (some centres not stated) ?
Reply: inactive

Query: Another compound to check: `CC(C)(C)c1ccc(NS(=O)(=O)c2ccc(N)cc2)cc1`
Reply: inactive

Query: What about this compound? `O=C1CC(=O)c2ccccc21`
Reply: inactive

Query: Further, for `CNC(=O)OCc1c(COC(=O)NC)c(-c2ccc(Cl)cc2)n2c1CCC2` ?
Reply: inactive

Query: CCOC(=O)C1N=[N+](c2ccccc2)C(=O)/C1=C\n1c(=S)[nH]c2ccc([N+](=O)[O-])cc21 (configuration not stated) ?
Reply: inactive

Query: Proceed to O=C1OC(OC/C(Br)=C(\Br)COC2OC(=O)C(Cl)=C2Cl)C(Cl)=C1Cl (configuration not stated)
Reply: inactive

Query: Next compound: `O=C(COC(=O)c1ccccc1)c1ccc(Br)cc1`
Reply: active

Query: Also need `CC(/C=C/c1ccccc1)=N\NC(N)=S` , thanks.
Reply: inactive

Query: Request: `CN(C)c1ccc(N=Nc2ccncc2)cc1`
Reply: inactive

Query: # iterate: C=C1C(=O)OC2CC1C(OC(C)=O)C/C(C)=C/CC/C(C)=C\CCC2(C)O (configuration not stated)
Reply: inactive

Query: CCc1ccc2c(c1)N(CC(C)CN(C)C)c1ccccc1S2 (configuration not stated) ?
Reply: inactive

Query: Try this compound next: `OCC(CO)C(c1cccc2ccccc12)c1cccc2ccccc12`
Reply: active

Query: Again, but for COc1ccc(C(NCCNC(c2ccc(OC)c(OC)c2)c2cc3c(cc2O)OCO3)c2cc3c(cc2O)OCO3)cc1OC (configuration not stated)
Reply: active

Query: Please give the result for `COc1cc(CSc2ccc(O)cc2)cc(O)c1O` too.
Reply: inactive
